Assay: Bidirectional transport of puerarin across RNEC monolayers
Type: in vitro ADME
Conditions: Sprague Dawley, rat

| COMPOUND | Papp at 180 min |
| --- | --- |
| O=c1c(-c2ccc(O)cc2)coc2c([C@@H]3O[C@H](CO)[C@@H](O)[C@H](O)[C@H]3O)c(O)ccc12 [puerarin, Puerarin] | < 1.5 ×10⁻⁶ cm/s |
